- targetOrSystem: p53 Y220C (Homo sapiens, UniProt P04637, Y220C)
- testMethodNotes: Luciferase Reporter Assay (Luc), p53 response element, NClH1299 cells with inducible p53 Y220C
- Format: cell-based
- recordedConditions: Emax; luciferase reporter, NClH1299 inducible p53 Y220C, 6 hour
- Description: Luciferase Reporter Assay Protocol The cells were then used for p53 reporter assay. 5,000 cells were seeded in each well of 384 plate and cultured in 0.5 ug/mL doxycycline (D3072; Sigma) containing medium for 24 hours before compound treatment. […] The luciferase activity was immediately measured with PheraStar microplate reader.
Recorded Emax for the following compounds
reportedProperty: Emax

compound="CNC(=O)c1cc(NCC#Cc2cc3c(N[C@@H]4CCN(C)C[C@@H]4F)cccn3c2SC(F)(F)F)n2ncnc2c1 [Example 361]" result="< 70%"
compound="CNC(=O)c1ccc(NCC#Cc2cn3c(N[C@@H]4CCNC[C@@H]4F)cccc3c2SC(F)(F)F)c(OC)c1 [Example 434]" result="80 to 90%"
compound="C[C@H](O)[C@H](C)NC(=O)c1ccc(NCC#Cc2cc3c(N[C@@H]4CCN(C)C[C@@H]4F)cccn3c2SC(F)(F)F)cc1 [Example 383]" result="> 90%"
compound="CNC(=O)c1cnc(OC)c(NCC#Cc2cc3c(N[C@@H]4CCN(C)C[C@@H]4F)nccn3c2SC(F)(F)F)c1 [Example 255]" result="> 90%"
compound="COc1ccc(C(=O)N[C@@H](C)[C@@H](C)O)cc1NCC#Cc1cc2c(N[C@@H]3CCN(C)C[C@@H]3F)cccn2c1SC(F)(F)F [Example 410]" result="> 90%"
compound="CNC(=O)c1cnc(OC)c(NCC#Cc2nn3c(N[C@@H]4CCN(C)C[C@@H]4F)cccc3c2SC(F)(F)F)c1 [Example 260]" result="80 to 90%"
compound="C[C@@H](O)[C@@H](C)NC(=O)c1ccc(NCC#Cc2cc3c(N[C@@H]4CCN(C)C[C@@H]4F)cccn3c2SC(F)(F)F)cc1 [Example 371]" result="> 90%"
compound="COc1ccc(C(N)=O)cc1NCC#Cc1nn2c(N[C@@H]3CCN(C)C[C@@H]3F)cccc2c1SC(F)(F)F [Example 232]" result="80 to 90%"
compound="COc1ccc(C(=O)NC[C@H](O)CO)cc1NCC#Cc1cc2c(N[C@@H]3CCN(C)C[C@@H]3F)cccn2c1SC(F)(F)F [Example 425]" result="> 90%"
compound="CNC(=O)c1ccc(Cl)c(NCC#Cc2nc3c(N[C@@H]4CCN(C)C[C@@H]4F)cccn3c2SC(F)(F)F)c1 [Example 312]" result="> 90%"
compound="CNC(=O)c1ccc(OC)c(NCC#Cc2nn3c(N[C@@H]4CN(C)C[C@@H]4F)cccc3c2SC(F)(F)F)c1 [Example 252]" result="80 to 90%"
compound="CNC(=O)c1ccc(OC)c(NCC#Cc2cc3c(N[C@@H]4CN(C)C[C@@H]4F)cccn3c2SC(F)(F)F)c1 [Example 444]" result="> 90%"
compound="CNC(=O)c1ccc(NCC#Cc2nc3c(N[C@@H]4CN(C)C[C@@H]4F)nccn3c2SC(F)(F)F)c(OC)c1 [Example 323]" result="> 90%"
compound="CN1CC[C@@H](Nc2cccn3c(SC(F)(F)F)c(C#CCNc4ccc(C(=O)NC[C@@H]5CCO5)cc4)cc23)[C@@H](F)C1 [Example 453]" result="> 90%"
compound="COc1cc(S(C)(=O)=O)ccc1NCC#Cc1cc2c(N[C@@H]3CCN(C)C[C@@H]3F)cccn2c1SC(F)(F)F [Example 341]" result="> 90%"
compound="COc1ccc(C(=O)NCC2CN(C)C2)cc1NCC#Cc1nc2c(N[C@@H]3CCOC[C@@H]3F)cccn2c1SC(F)(F)F [Example 228]" result="< 70%"
compound="O=C(N[C@H]1C[C@@H](O)C1)c1ccc(NCC#Cc2cc3c(N[C@@H]4CCNC[C@@H]4F)cccn3c2SC(F)(F)F)cc1 [Example 391]" result="80 to 90%"
compound="CNC(=O)c1ccc(OC)c(NCC#Cc2nn3c(N[C@@H]4CCN(C)C[C@@H]4F)cccc3c2SC(F)(F)F)c1 [Example 231]" result="80 to 90%"
